target desc: Cannabinoid receptor 1 (Rattus norvegicus, UniProt P20272)
Sequence (P20272 whole entry): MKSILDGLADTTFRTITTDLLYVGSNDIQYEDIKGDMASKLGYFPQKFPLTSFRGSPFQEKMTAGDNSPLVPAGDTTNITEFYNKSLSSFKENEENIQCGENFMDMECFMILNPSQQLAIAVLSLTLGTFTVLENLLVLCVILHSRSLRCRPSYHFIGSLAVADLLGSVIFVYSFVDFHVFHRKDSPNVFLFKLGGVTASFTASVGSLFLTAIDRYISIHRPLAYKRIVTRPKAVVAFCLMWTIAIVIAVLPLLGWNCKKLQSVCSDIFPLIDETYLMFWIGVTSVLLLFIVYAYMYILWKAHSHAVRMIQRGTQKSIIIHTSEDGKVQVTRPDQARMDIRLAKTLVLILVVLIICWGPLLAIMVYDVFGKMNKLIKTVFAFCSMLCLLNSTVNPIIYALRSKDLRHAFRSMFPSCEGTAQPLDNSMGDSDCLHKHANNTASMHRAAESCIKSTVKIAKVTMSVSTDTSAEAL
procedure summary: Binding affinity towards rat brain cannabinoid receptor 1 in the presence of PMSF upon incubation for 15 min at 4 degree C in pH 7.4 using [3H]CP-55940
measured parameter: Ki

CCCCC/C=C\C/C=C\C/C=C\C/C=C\CCCC(=O)NC1CC1 ... 2.7 nM

From here, focus on the item given below.
Enter recorded Ki with Cannabinoid receptor 1 (Rattus norvegicus, UniProt P20272) for O=C(CCC/C=C\C/C=C\C/C=C\C/C=C\CCCCCN=C=S)NC1CC1 here. 1.3 nM
